This collection of values is drawn from patent US12595248B2.

- assay.system: PRMT5 (Homo sapiens)
- Construct: seeded with 4000 MCF-7 cells in 30 μl media; endogenous in cells
- Sequence (O14744 whole entry): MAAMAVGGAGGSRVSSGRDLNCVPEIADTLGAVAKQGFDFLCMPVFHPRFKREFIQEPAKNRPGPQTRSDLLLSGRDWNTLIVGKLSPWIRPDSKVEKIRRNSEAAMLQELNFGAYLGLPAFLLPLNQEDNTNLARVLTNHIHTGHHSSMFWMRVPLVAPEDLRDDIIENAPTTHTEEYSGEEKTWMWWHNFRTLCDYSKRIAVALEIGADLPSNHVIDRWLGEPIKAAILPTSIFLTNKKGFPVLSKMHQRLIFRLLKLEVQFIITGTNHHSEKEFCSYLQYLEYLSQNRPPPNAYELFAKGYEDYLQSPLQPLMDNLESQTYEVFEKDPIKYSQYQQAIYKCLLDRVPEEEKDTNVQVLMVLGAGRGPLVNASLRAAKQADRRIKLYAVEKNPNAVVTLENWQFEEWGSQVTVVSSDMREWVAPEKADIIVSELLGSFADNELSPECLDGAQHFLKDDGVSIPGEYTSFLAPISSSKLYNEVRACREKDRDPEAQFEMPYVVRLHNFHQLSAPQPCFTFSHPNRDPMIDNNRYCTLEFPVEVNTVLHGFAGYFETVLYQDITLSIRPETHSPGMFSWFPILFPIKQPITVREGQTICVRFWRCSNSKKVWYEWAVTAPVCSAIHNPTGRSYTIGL
- Sequence (Q9BQA1 whole entry partner): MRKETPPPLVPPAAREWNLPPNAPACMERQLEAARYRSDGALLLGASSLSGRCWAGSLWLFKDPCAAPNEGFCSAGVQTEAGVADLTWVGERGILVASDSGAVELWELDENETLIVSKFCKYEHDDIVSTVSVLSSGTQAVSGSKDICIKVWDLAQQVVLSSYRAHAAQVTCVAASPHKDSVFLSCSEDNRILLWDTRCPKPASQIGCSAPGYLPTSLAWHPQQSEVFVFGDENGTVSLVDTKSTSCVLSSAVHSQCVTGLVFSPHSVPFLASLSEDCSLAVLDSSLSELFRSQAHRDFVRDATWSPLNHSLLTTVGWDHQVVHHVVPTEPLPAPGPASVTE
- protocol.description: PRMT5 Cell Target Engagement (TE) Assay
- condition.info: MCF-7 cells, treated for 3 days, symmetric dimethylation of arginine (SDMA) by high content imaging
pEC50: −log10 of the molar value.
reported.endpoint: pEC50

Answered examples (2):
| compound | assay.system | pEC50 |
| --- | --- | --- |
| Cc1cc(Cl)c2nc(C(=O)N3CC[C@H](N4CCc5ccccc5C4)[C@@H](O)C3)cn2c1 | PRMT5 (Homo sapiens) | 7.30 |
| O=C1Nc2cc(C(=O)N3CC[C@H](N4CCc5ccccc5C4)[C@@H](O)C3)ccc2OC1C1CC1 (single isomer, unassigned) [Example 81] | PRMT5 (Homo sapiens) | 7.23 |

a: CC(=O)N1CCC(Nc2cc(C(=O)N3CC[C@H](N4CCc5ccccc5C4)[C@@H](O)C3)ccn2)C(F)(F)C1 (single isomer, unassigned) [Example 6]
b: O=C(c1cc2ncc(Br)cn2n1)N1CC[C@H](N2CCc3ccccc3C2)[C@@H](O)C1
-- ask # argmax over pEC50 for candidates a and b Could you answer with the label of the item you picked?
-- reply a
(a: 7.62, b: 6.09)
